- Measurement Target: T1, CTLA4 antigen on the surface of 293F-CTLA4 host cells (UniProt P16410 36-223, limits assumed)
- T1 construct: whole, on cells
- T1 sequence (looked up): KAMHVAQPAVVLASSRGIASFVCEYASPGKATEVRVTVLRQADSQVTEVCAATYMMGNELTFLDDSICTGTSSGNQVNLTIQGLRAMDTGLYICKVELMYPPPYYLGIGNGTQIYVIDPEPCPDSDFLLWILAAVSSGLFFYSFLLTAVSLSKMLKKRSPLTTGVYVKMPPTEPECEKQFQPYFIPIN
- Experiment Summary: flow cytometry, 293F-CTLA4 cells; antibody 0.1 nM
Endpoint Label: fluorescence intensity
Please respond with just the number, no unit label.

As a guide, the following entries are already answered.
humanized antibody 8D2H2L2 (antibody, V domains shown, also called 8D2H2L2(20150327); 8D2H2L2(20140422)) VH: EVQLVESGGGLVQPGGSMRLSCAASGFTFSDNWMNWVRQAPGKGLEWLAQIRNKPYNYETYYSASVKGRFTISRDDSKNSVYLQMNSLKTEDTGVYYCTAQFAYWGQGTLVTVSS VL: DIQMTQSPSSLSASVGDRVTITCRTSENIYGGLNWYQRKPGKSPKLLIYGATNLASGVSSRFSGSGSGTDYTLTISSLQPEDVATYYCQNVLRSPFTFGSGTKLEIK | 124
humanized antibody 8D2H1L1 (antibody, V domains shown) VH: EVQLVESGGGLVQPGGSMRLSCAASGFTFSDNWMNWVRQAPGKGLEWLAQIRNKPYNYETYYSDSVKGRFTISRDDSKNSVYLQMNSLKTEDTGVYYCTAQFAYWGQGTLVTVSS VL: DIQMTQSPSSLSASVGDRVTITCRTSENIYGGLNWYQRKQGKSPKLLIYGATNLASGMSSRFSGSGSGTDYTLKISSLHPDDVATYYCQNVLRSPFTFGSGTKLEIK | 21.2
humanized antibody 8D2H3L3 (antibody, V domains shown) VH: EVQLVESGGGLVQPGGSLRLSCAASGFTFSDNWMNWVRQAPGKGLEWVAQIRNKPYNYETEYAASVKGRFTISRDDSKNSAYLQMNSLKTEDTAVYYCTAQFAYWGQGTLVTVSS VL: DIQMTQSPSSLSASVGDRVTITCRASENIYGGLNWYQQKPGKAPKLLIYGATSLASGVPSRFSGSGSGTDYTLTISSLQPEDFATYYCQNVLRSPFTFGSGTKLEIK | 108
8D2 recombinant antibody, 8D2(Re) (antibody, V domains shown) VH: EVKLDETGGGLVQPGRPMKLSCVASGFTFSDNWMNWVRQSPEKGLEWLAQIRNKPYNYETYYSDSVKGRFTISRDDSKSSVYLQMNNLRGEDMGIYYCTAQFAYWGQGTLVTVSA VL: DIQMTQSPASLSASVGETVTITCGTSENIYGGLNWYQRKQGKSPQLLIFGATNLADGMSSRFSGSGSGRQYSLKISSLHPDDVATYYCQNVLRSPFTFGSGTKLEI | 66.7

Prompt: Specify reported fluorescence intensity for the binder shown: monoclonal antibody 8D2 (antibody, V domains shown, Murine antibody purified from hybridoma supernatant; also called mAb 8D2; antibody secreted by the CTLA4-8D2 hybridoma cell line LT001) VH: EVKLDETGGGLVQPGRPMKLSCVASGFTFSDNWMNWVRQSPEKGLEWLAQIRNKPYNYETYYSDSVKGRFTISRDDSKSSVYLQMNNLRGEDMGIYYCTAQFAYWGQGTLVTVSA VL: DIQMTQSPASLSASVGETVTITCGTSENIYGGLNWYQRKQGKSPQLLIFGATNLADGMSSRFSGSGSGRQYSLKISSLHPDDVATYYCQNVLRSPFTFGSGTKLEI
Response: 9.1

src = patent US20260166139A1
